Value source: patent US20190092852A1

Molecular target: T1, human IL-33 (R&D Systems, #3625-IL-010/CF) (human, UniProt O95760 112-270)
T1 construct: also called hIL-33; huIL-33
T1 sequence (looked up): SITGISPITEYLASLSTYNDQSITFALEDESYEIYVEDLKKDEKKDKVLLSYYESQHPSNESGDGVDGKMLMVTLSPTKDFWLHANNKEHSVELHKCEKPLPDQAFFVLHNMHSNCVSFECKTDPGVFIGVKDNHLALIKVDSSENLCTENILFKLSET
Experiment: SPR Biacore T200, 25 C
assay endpoint: koff (s⁻¹)
Hi! Could you send only the number? It should be in s⁻¹, unit omitted.

Example entries and their recorded answers appear below.
binder: H1M9559N (antibody, IgG1, V domains shown, also called RG1) VH: QVQLVESGGGVVQPGRSLRLSCAASGFTFSSYGMHWVRQAPGKGLEWVAVIWYDGRNKYYTDSVKGRFTISRDNSKNTLYLQMDSLRAEDTAVYYCARERYISSYYGGFDPWGQGALVTVSS VL: DIQMTQSPSSVSASVGDRVTITCRASQGISSWLAWYQQKPGKAPKVLIYAASSLQSGVPSRFSGSGSGTDFTLTISSLQPEDFATYYCQQANSFPFTFGPGTKLDIK
unit symbol: s⁻¹
koff: 0.000184
//
binder: H4H9629P (antibody, IgG4, V domains shown, also called RG4) VH: EVQLVESGGGLVQPGGSLRLSCAASGFTFRSFAMSWVRQAPGKGLELVSDLRTSGGSTYYADSVKGRLTISRDNSKNTLYLQMNSLRAEDTAVYYCAKSHYSTSWFGGFDYWGQGTLVTVSS VL: DIQMTQSPSSVSASVGDRVTITCRASQGFSSWLAWYQQKPGKAPKLLIYAASSLQSGVPSRFSGSGSGTDFTLTITNLQPEDFATYYCQQANSFPLTFGGGTKVEIK
unit symbol: s⁻¹
koff: 0.000632
//
binder: H4H9640P (antibody, IgG4, V domains shown, also called RG6) VH: QVQLQESGPGLVKPSETLSLTCTVSGGSISSYYWSWIRQPPGKGLELIGYIYYSGSTNYNPSLKSRVTISVDTSKNHFSLKLSSVTAADTAVYYCARSQYTSSWYGSFDIWGQGTMVTVSS VL: DIQMTQSPSSVSASVGDRVTITCRASQGISTWLAWFQQKPGKAPKLLIYAASTLQGGVPSRFSGSGSGPEFTLTISSLQPEDFATYYCQQANSFPWTFGQGTKVEIK
unit symbol: s⁻¹
koff: 0.000438

The record that follows has no koff shown yet.
Query string: Can you share its koff? I mean this binder: H1M9566N (antibody, IgG1, V domains shown, also called RG2) VH: EVQLLESGGDLVQPGGSLRLSCAASGFTFSSYAMSWVRQAPGKGLEWVSVISGSGSSTDYADSVKGRFTISRDNSRDTLHLQMNSLRAEDTAVYYCAKTFYYFYGLDVWGQGTTVTVSS VL: DIQMTQSPSSLSASLRDRVTITCRASQGISNYLAWYQQKPGKVPKVLIYAASTLQSGVPSRFSGSGSGTVFTLTISSLQTEDVATYYCQKYSSAPFTFGPGTKVDIK
Result string: 7.73e-05
